src = ChEMBL document CHEMBL1148007

tested on: Pseudomonas aeruginosa; test: Antibacterial activity against Pseudomonas aeruginosa at 50 to 100 uM after 24 hrs by well diffusion method; assay type: functional
recordedMetric: inhibition zone
Show the value, then the unit it is measured in.

Known inhibition zone results, listed for orientation:
O=C(O)CCNc1nc(Cc2nnc(SCC(=O)NNC(=O)c3ccccc3)n2NC(=O)c2ccc(Cl)cc2)cs1 | 25 mm
N#CCSc1nnc(Cc2csc(NCCC(=O)O)n2)n1NC(=O)c1ccc(Cl)cc1 | 29 mm
N#CCSc1nnc(Cc2csc(NC(=O)c3ccccc3)n2)n1NC(=O)c1ccc(Cl)cc1 | 27 mm
NNC(=O)CSc1nnc(Cc2csc(NC(=O)CCl)n2)n1NC(=O)c1ccc(Cl)cc1 | 18 mm
COC(=O)CSc1nnc(Cc2csc(NC(C)=O)n2)n1NC(=O)c1cccc([N+](=O)[O-])c1 | 22 mm
O=C(Nc1nc(Cc2nnc(S)n2NC(=O)c2cccc([N+](=O)[O-])c2)cs1)c1ccccc1 | 24 mm
O=C(CSc1nnc(Cc2csc(NC(=O)c3ccccc3)n2)n1NC(=O)c1ccc(Cl)cc1)NNC(=O)c1ccccc1 | 24 mm
CC(=O)Nc1nc(Cc2nnc(SCc3nnc(S)n3N)n2NC(=O)c2cccc([N+](=O)[O-])c2)cs1 | 13 mm

Query: Please list inhibition zone recorded for the compound CC(=O)Nc1nc(Cc2nnc(S)n2N)cs1
Reply: 27 mm

Query: Tell me measured inhibition zone for NNC(=O)CSc1nnc(Cc2csc(NCCC(=O)O)n2)n1NC(=O)c1cccc([N+](=O)[O-])c1 please.
Reply: 28 mm

Query: Quick one: give measured inhibition zone for O=C(CCl)Nc1nc(Cc2nnc(SCSc3nnc(Cc4csc(NC(=O)CCl)n4)n3NC(=O)c3ccc(Cl)cc3)n2NC(=O)c2ccc(Cl)cc2)cs1
Reply: 28 mm

Query: Annotate the compound CC(=O)NNC(=O)CSc1nnc(Cc2csc(NC(=O)CCl)n2)n1NC(=O)c1ccc(Cl)cc1 with its measured inhibition zone.
Reply: 21 mm

Query: Find the measured inhibition zone of O=C(CCl)Nc1nc(Cc2nnc(S)n2NC(=O)c2ccc(Cl)cc2)cs1 and report it.
Reply: 20 mm

###

test system: Staphylococcus aureus; experiment: Antibacterial activity against Staphylococcus aureus at 50 to 100 uM after 24 hrs by well diffusion method; format: functional
recordedMetric: inhibition zone (mm)
Express the result in mm but write the number alone.

Answered examples (7):
O=C(CCl)NNC(=O)CSc1nnc(Cc2csc(NC(=O)c3ccccc3)n2)n1NC(=O)c1cccc([N+](=O)[O-])c1 | 14
CC(=O)Nc1nc(Cc2nnc(S)n2NC(=O)c2ccc(Cl)cc2)cs1 | 16
CC(=O)Nc1nc(Cc2nnc(SCc3nnc(S)n3N)n2NC(=O)c2cccc([N+](=O)[O-])c2)cs1 | 18
CC(=O)Nc1nc(Cc2nnc(SCC(=O)NN)n2NC(=O)c2cccc([N+](=O)[O-])c2)cs1 | 19
CC(=O)Nc1nc(Cc2nnc(SCC(=O)NNC(=O)CCl)n2NC(=O)c2ccc(Cl)cc2)cs1 | 25
CC(=O)NNC(=O)CSc1nnc(Cc2csc(NC(=O)CCl)n2)n1NC(=O)c1ccc(Cl)cc1 | 25
O=C(CSc1nnc(Cc2csc(NC(=O)c3ccccc3)n2)n1NC(=O)c1ccc(Cl)cc1)N/N=C/c1ccccc1 | 21

Continue with the compound presented below.
Query: Given O=C(O)CCNc1nc(Cc2nnc(SCC(=O)NNC(=O)c3ccccc3)n2NC(=O)c2cccc([N+](=O)[O-])c2)cs1 , respond with its inhibition zone.
Reply: 12

###

tested on: Pseudomonas aeruginosa; assay: Antibacterial activity against Pseudomonas aeruginosa at 50 to 100 uM after 24 hrs by well diffusion method; type: functional
Note to self: values exactly at 20 mm are Fulfilled. So inhibition zone at or above 20 mm is Fulfilled, below is Not fulfilled.

CC(=O)NNC(=O)CSc1nnc(Cc2csc(NCCC(=O)O)n2)n1NC(=O)c1cccc([N+](=O)[O-])c1 | Not fulfilled
O=C(O)CCNc1nc(Cc2nnc(SCSc3nnc(Cc4csc(NCCC(=O)O)n4)n3NC(=O)c3cccc([N+](=O)[O-])c3)n2NC(=O)c2cccc([N+](=O)[O-])c2)cs1 | Fulfilled
CC(=O)NNC(=O)CSc1nnc(Cc2csc(NCCC(=O)O)n2)n1NC(=O)c1ccc(Cl)cc1 | Fulfilled
O=C(O)CCNc1nc(Cc2nnc(SCSc3nnc(Cc4csc(NCCC(=O)O)n4)n3NC(=O)c3ccc(Cl)cc3)n2NC(=O)c2ccc(Cl)cc2)cs1 | Fulfilled
O=C(CCl)NNC(=O)CSc1nnc(Cc2csc(NC(=O)c3ccccc3)n2)n1NC(=O)c1cccc([N+](=O)[O-])c1 | Not fulfilled
Nn1c(S)nnc1CSc1nnc(Cc2csc(NCCC(=O)O)n2)n1NC(=O)c1ccc(Cl)cc1 | Fulfilled
CC(=O)Nc1nc(Cc2nnc(S)n2NC(=O)c2cccc([N+](=O)[O-])c2)cs1 | Not fulfilled

Okay, now this compound:
Query: Test whether the compound O=C(CCl)Nc1nc(Cc2nnc(S)n2NC(=O)c2cccc([N+](=O)[O-])c2)cs1 records inhibition zone of 20 mm or higher.
Reply: Fulfilled

###

Collected inhibition zone values appear next to each entry.
test system: Staphylococcus aureus; test: Antibacterial activity against Staphylococcus aureus at 50 to 100 uM after 24 hrs by well diffusion method; assay type: functional

A selection of reference data follows.
O=C(O)CCNc1nc(Cc2nnc(SCC(=O)NNC(=O)CCl)n2NC(=O)c2cccc([N+](=O)[O-])c2)cs1 | 24 mm
CC(=O)Nc1nc(Cc2nnc(SCC(=O)NNC(=O)c3ccccc3)n2NC(=O)c2ccc(Cl)cc2)cs1 | 28 mm
COC(=O)CSc1nnc(Cc2csc(NC(C)=O)n2)n1NC(=O)c1cccc([N+](=O)[O-])c1 | 24 mm

Let us examine a further case.
Query: Given N#CCSc1nnc(Cc2csc(NC(=O)CCl)n2)n1NC(=O)c1cccc([N+](=O)[O-])c1 , report its inhibition zone on Staphylococcus aureus.
Reply: 24 mm

###

test system: Staphylococcus aureus; test: Antibacterial activity against Staphylococcus aureus at 50 to 100 uM after 24 hrs by well diffusion method; type: functional
recordedMetric: inhibition zone (mm)
Report only the number, with the unit mm understood.

Worked examples follow.
COC(=O)CSc1nnc(Cc2csc(NC(C)=O)n2)n1NC(=O)c1ccc(Cl)cc1 | 20
O=C(CSc1nnc(Cc2csc(NC(=O)c3ccccc3)n2)n1NC(=O)c1cccc([N+](=O)[O-])c1)NNC(=O)c1ccccc1 | 18
O=C(O)CCNc1nc(Cc2nnc(S)n2NC(=O)c2ccc(Cl)cc2)cs1 | 11
O=C(CSc1nnc(Cc2csc(NC(=O)CCl)n2)n1NC(=O)c1cccc([N+](=O)[O-])c1)NNC(=O)c1ccccc1 | 21
N#CCSc1nnc(Cc2csc(NCCC(=O)O)n2)n1NC(=O)c1cccc([N+](=O)[O-])c1 | 25
O=C(Nc1nc(Cc2nnc(S)n2NC(=O)c2ccc(Cl)cc2)cs1)c1ccccc1 | 16

Query: Please give measured inhibition zone of the following entry: CC(=O)NNC(=O)CSc1nnc(Cc2csc(NC(=O)c3ccccc3)n2)n1NC(=O)c1ccc(Cl)cc1
Reply: 26

Query: Please give the documented inhibition zone of COC(=O)CSc1nnc(Cc2csc(NCCC(=O)O)n2)n1NC(=O)c1cccc([N+](=O)[O-])c1
Reply: 22

###

test system: Staphylococcus aureus; assay: Antibacterial activity against Staphylococcus aureus at 50 to 100 uM after 24 hrs by well diffusion method; format: functional
Classify by measured inhibition zone: True if it is equal to or exceeds 30 mm, False if it is smaller.

Look over these answered cases.
CC(=O)Nc1nc(Cc2nnc(SCSc3nnc(Cc4csc(NC(C)=O)n4)n3NC(=O)c3ccc(Cl)cc3)n2NC(=O)c2ccc(Cl)cc2)cs1 | False
Nn1c(S)nnc1Cc1csc(NC(=O)CCl)n1 | False
O=C(CCl)NNC(=O)CSc1nnc(Cc2csc(NC(=O)CCl)n2)n1NC(=O)c1ccc(Cl)cc1 | False
CC(=O)Nc1nc(Cc2nnc(SCC(=O)NNC(=O)c3ccccc3)n2NC(=O)c2cccc([N+](=O)[O-])c2)cs1 | True
Nn1c(S)nnc1CSc1nnc(Cc2csc(NCCC(=O)O)n2)n1NC(=O)c1ccc(Cl)cc1 | False

Query: Test whether the molecule N#CCSc1nnc(Cc2csc(NC(=O)c3ccccc3)n2)n1NC(=O)c1cccc([N+](=O)[O-])c1 records inhibition zone of 30 mm or higher.
Reply: False

Query: inhibition zone >= 30 mm for CC(=O)NNC(=O)CSc1nnc(Cc2csc(NC(C)=O)n2)n1NC(=O)c1cccc([N+](=O)[O-])c1 ?
Reply: True

Query: Please tell me: is the molecule NNC(=O)CSc1nnc(Cc2csc(NC(=O)c3ccccc3)n2)n1NC(=O)c1cccc([N+](=O)[O-])c1 at or over 30 mm in terms of inhibition zone?
Reply: False

###

tested on: Pseudomonas aeruginosa; test: Antibacterial activity against Pseudomonas aeruginosa at 50 to 100 uM after 24 hrs by well diffusion method; assay type: functional
Each entry below carries its reported inhibition zone.
Give your result in mm as a bare value.

Solved entries:
Nn1c(S)nnc1Cc1csc(NC(=O)c2ccccc2)n1 | 20
O=C(CSc1nnc(Cc2csc(NC(=O)CCl)n2)n1NC(=O)c1cccc([N+](=O)[O-])c1)NNC(=O)c1ccccc1 | 18
Nn1c(S)nnc1CSc1nnc(Cc2csc(NCCC(=O)O)n2)n1NC(=O)c1cccc([N+](=O)[O-])c1 | 28
O=C(CCl)Nc1nc(Cc2nnc(SCSc3nnc(Cc4csc(NC(=O)CCl)n4)n3NC(=O)c3cccc([N+](=O)[O-])c3)n2NC(=O)c2cccc([N+](=O)[O-])c2)cs1 | 30
Nn1c(S)nnc1CSc1nnc(Cc2csc(NC(=O)c3ccccc3)n2)n1NC(=O)c1ccc(Cl)cc1 | 19

Query: Determine its reported inhibition zone: NNC(=O)CSc1nnc(Cc2csc(NC(=O)c3ccccc3)n2)n1NC(=O)c1ccc(Cl)cc1
Reply: 32

Query: Supply measured inhibition zone of CC(=O)Nc1nc(Cc2nnc(SCSc3nnc(Cc4csc(NC(C)=O)n4)n3NC(=O)c3ccc(Cl)cc3)n2NC(=O)c2ccc(Cl)cc2)cs1 in your reply.
Reply: 21

Query: Please report the measured inhibition zone for O=C(Nc1nc(Cc2nnc(SCSc3nnc(Cc4csc(NC(=O)c5ccccc5)n4)n3NC(=O)c3cccc([N+](=O)[O-])c3)n2NC(=O)c2cccc([N+](=O)[O-])c2)cs1)c1ccccc1
Reply: 24

Query: Dear colleague, please send me the reported inhibition zone for O=C(CCl)NNC(=O)CSc1nnc(Cc2csc(NC(=O)CCl)n2)n1NC(=O)c1cccc([N+](=O)[O-])c1 when you can.
Reply: 16

Query: Look up and report measured inhibition zone for this entry: COC(=O)CSc1nnc(Cc2csc(NC(=O)c3ccccc3)n2)n1NC(=O)c1cccc([N+](=O)[O-])c1
Reply: 11

Query: Please report the measured inhibition zone for CC(=O)NNC(=O)CSc1nnc(Cc2csc(NC(=O)c3ccccc3)n2)n1NC(=O)c1cccc([N+](=O)[O-])c1
Reply: 18
